- PROTOCOL_DETAILS: Measurement of log P values by HPLC on reversed phase columns (methods [a] pH 2.3, [b] pH 2.7, [c] pH 7.8)
- Assay type: physicochemical
- RECORDED_CONDITIONS: method [b], HPLC reversed phase, pH 2.7
logP: recorded values
OBSERVED_PROPERTY: logP

>>> df
                                    compound   reading
 0  Cn1cc(C(=O)NC2CC2c2ccc(Cl)cc2)c(C(F)F)n1 (centres unmarked)  2.30^[b]
 1  CCc1nn(C)c(F)c1C(=O)N(C1CC1)C1CCCC1c1ccccc1Cl (centres unmarked)  4.21^[b]
 2  Cn1nc(C(F)F)c(C(=O)NC2CCCCC2c2ccccc2)c1F (centres unmarked) [Example 182]  3.29^[b]
 3  O=C(NC1CC1c1ccc(Cl)cc1)c1sccc1I (centres unmarked)  3.56^[b]
 4  Cn1cc(C(=O)N(C2CC2)C2CCCCC2c2ccccc2)c(C(F)F)n1 (centres unmarked) [Example 143]  3.55^[b]
 5  Cc1ccsc1C(=O)N[C@@H]1CCC[C@H]1c1ccc(F)c(F)c1 (relative stereo)  3.46^[b]
 6  Cc1nc(C(F)F)c(C(=O)N(C2CC2)C2CCCCC2c2ccccc2)s1 (centres unmarked)  4.18^[b]
 7  O=C(NC1CCC1c1ccccc1C(F)(F)F)c1ccccc1Br (centres unmarked)  3.32^[b]
 8  Cn1cc(C(=O)N(C2CC2)C2CCCCC2c2ccccc2)c(I)n1 (centres unmarked)  3.60^[b]
 9  Cc1nc(C(F)F)c(C(=O)N(C2CC2)C2CCCCC2c2ccc(Cl)cc2Cl)s1 (centres unmarked)  5.25^[b]
10  O=C(N[C@@H]1CC[C@H]1c1ccccc1Cl)c1ccccc1C(F)(F)F (relative stereo)  3.45^[b]
11  O=C(NC1CCC1c1c(F)cccc1F)c1ncc(C(F)(F)F)cc1Cl (centres unmarked)  3.61^[b]
12  Cn1nc(C(F)F)c(C(=O)N(C2CC2)C2CCCC2c2ccc(Cl)cc2Cl)c1F (centres unmarked)  4.67^[b]
13  Cn1cc(C(=O)N(C2CC2)C2CCCCC2c2ccccc2Cl)c(C(F)F)n1 (centres unmarked)  4.03^[b]
